Target: Serine/threonine-protein kinase 4 (Homo sapiens)
Test: Binding affinity to recombinant MST1 (unknown origin) assessed as change in melting temperature by DSF analysis
Measured property: ΔTm (°C)

Solved entries:
| Structure smiles string | ΔTm / °C |
| --- | --- |
| COc1ccc(O)c(Nc2ncc3cc(-c4ccc(-c5cccc(C)n5)cc4Cl)c(=O)n(CCCCN)c3n2)c1 | 3.8 |
| CNc1ncc2cc(-c3ccc(-c4cccc(C)n4)cc3Cl)c(=O)n(CCCCN)c2n1 | 5.6 |
| CNc1ncc2cc(-c3ccc(-c4cccc(C)n4)cc3Cl)c(=O)n(CCCN)c2n1 | 2.8 |

P. Cc1cccc(-c2ccc(-c3cc4cnc(Nc5cc(C(F)(F)F)ccc5C)nc4n(CCCCN)c3=O)c(Cl)c2)n1
Q. CNc1ncc2cc(-c3ccc(-c4cccc(C)n4)cc3Cl)c(=O)n(CCN)c2n1
Between P and Q , which one has the lower reported ΔTm value? // return label of chosen record Q
(Q: 1.6 °C, P: 5.8 °C)

* * *

Biological target: Serine/threonine-protein kinase 3 (Homo sapiens)
Sequence (Q13188 whole entry): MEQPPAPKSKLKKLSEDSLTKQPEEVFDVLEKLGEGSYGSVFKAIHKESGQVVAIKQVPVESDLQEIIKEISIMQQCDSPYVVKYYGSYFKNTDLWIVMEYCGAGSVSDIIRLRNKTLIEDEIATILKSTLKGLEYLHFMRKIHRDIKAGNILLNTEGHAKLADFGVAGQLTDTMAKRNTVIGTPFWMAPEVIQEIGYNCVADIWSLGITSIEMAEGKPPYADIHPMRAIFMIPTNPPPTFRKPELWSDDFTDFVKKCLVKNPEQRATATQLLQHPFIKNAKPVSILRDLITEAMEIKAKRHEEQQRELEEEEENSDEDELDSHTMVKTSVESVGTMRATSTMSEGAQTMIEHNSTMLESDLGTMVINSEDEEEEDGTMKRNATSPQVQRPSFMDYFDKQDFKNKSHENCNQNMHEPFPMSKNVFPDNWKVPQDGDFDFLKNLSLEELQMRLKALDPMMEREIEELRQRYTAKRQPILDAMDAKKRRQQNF
Experiment: Inhibition of MST2 (unknown origin) expressed in HEK293T cells using NanoGlo as substrate incubated for 20 hrs by NanoBRET assay
pEC50: −log10 of the molar value.
Measured property: pEC50

| Structure smiles string | pEC50 |
| --- | --- |
| Cc1cccc(-c2ccc(-c3cc4cnc(Nc5cc(C(F)(F)F)ccc5C)nc4n(CCCCN)c3=O)c(Cl)c2)n1 | 5.26 |

P. CNc1ncc2cc(-c3ccc(-c4cccc(C)n4)cc3Cl)c(=O)n(CCO)c2n1
Q. CNc1ncc2cc(-c3ccc(-c4cccc(C)n4)cc3Cl)c(=O)n(CCCN)c2n1
Which numeric pEC50 is bigger, that of P or that of Q ? Please respond with the label that marks your chosen entry. P
(P: 5.36, Q: 4.70)

P. CNc1ncc2cc(-c3ccc(-c4cccc(C)n4)cc3Cl)c(=O)n(CCCCCO)c2n1
Q. CNc1ncc2cc(-c3ccc(-c4cccc(C)n4)cc3Cl)c(=O)n(CCN)c2n1
Determine, for P and Q , which has the greater value of pEC50. Please indicate the selected item by its label. P
(P: 5.55, Q: 4.86)

I. Cc1cccc(-c2ccc(-c3cc4cnc(NCCCN5CCOCC5)nc4n(CCCCN)c3=O)c(Cl)c2)n1
II. CNc1ncc2cc(-c3ccc(-c4cccc(C)n4)cc3Cl)c(=O)n(C[C@H]3OC[C@H](N)CO3)c2n1
III. CNc1ncc2cc(-c3ccc(-c4cccc(C)n4)cc3Cl)c(=O)n(CCC3CCNCC3)c2n1
Exam item: list the entries in increasing order of pEC50. State the ranking by listing the labels in the requested order. I, II, III
(I: 4.99, II: 5.34, III: 5.74)

* * *

Biological target: Serine/threonine-protein kinase 26 (Homo sapiens)
Sequence (Q9P289 2-416 limits assumed): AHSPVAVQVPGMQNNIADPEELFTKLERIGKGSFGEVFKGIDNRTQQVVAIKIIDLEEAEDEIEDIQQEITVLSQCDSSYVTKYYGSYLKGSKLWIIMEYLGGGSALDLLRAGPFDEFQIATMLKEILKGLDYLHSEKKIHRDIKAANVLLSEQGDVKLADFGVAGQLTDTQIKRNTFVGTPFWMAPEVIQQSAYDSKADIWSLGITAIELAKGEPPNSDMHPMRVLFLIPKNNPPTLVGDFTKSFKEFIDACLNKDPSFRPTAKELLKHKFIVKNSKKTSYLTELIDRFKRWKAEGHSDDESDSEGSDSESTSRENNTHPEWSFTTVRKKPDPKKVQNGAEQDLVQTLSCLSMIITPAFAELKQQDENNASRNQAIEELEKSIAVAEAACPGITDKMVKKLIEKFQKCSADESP
Assay: Binding affinity to recombinant MST4 (unknown origin) assessed as change in melting temperature by DSF analysis
Measured property: ΔTm (°C)

P. CNc1ncc2cc(-c3ccc(-c4cccc(C)n4)cc3Cl)c(=O)n(CCOC)c2n1
Q. CNc1ncc2cc(-c3ccc(-c4cccc(C)n4)cc3Cl)c(=O)n(CCCCCN)c2n1
Which entry shows the lesser value of ΔTm here, P or Q ? Indicate your choice by writing its label. P
(P: 4.4 °C, Q: 7.1 °C)

a. Cc1cccc(-c2ccc(-c3cc4cnc(Nc5ccc(O)cc5)nc4n(CCCCN)c3=O)c(Cl)c2)n1
b. COc1cc(N2CCOCC2)ccc1Nc1ncc2cc(-c3ccc(-c4cccc(C)n4)cc3Cl)c(=O)n(CCCCN)c2n1
c. CNc1ncc2cc(-c3ccc(-c4cccc(C)n4)cc3Cl)c(=O)n(CCCCCO)c2n1
Arrange the 3 entries by ΔTm so the values rise. Write the labels in rank order as requested. c, b, a

P. CNc1ncc2cc(-c3ccc(-c4cccc(C)n4)cc3Cl)c(=O)n(CCO)c2n1
Q. Cc1cccc(-c2ccc(-c3cc4cnc(Nc5cc(C(F)(F)F)ccc5C)nc4n(CCCCN)c3=O)c(Cl)c2)n1
// select label with min value of measured ΔTm from [ P , Q ] Let me know the label of the one you choose. P
(P: 5.8 °C, Q: 9.5 °C)

a. CNc1ncc2cc(-c3ccc(-c4cccc(C)n4)cc3Cl)c(=O)n(CCCO)c2n1
b. Cc1cccc(-c2ccc(-c3cc4cnc(NC(CO)CO)nc4n(CCCCN)c3=O)c(Cl)c2)n1
c. Cc1cccc(-c2ccc(-c3cc4cnc(Nc5ccc(F)c(CO)c5)nc4n(CCCCN)c3=O)c(Cl)c2)n1
Place the items in sequence of falling ΔTm. Sort the labels as requested; that list is your answer. c, b, a

Data provenance is ChEMBL document CHEMBL5528076.
